Data credit: ChEMBL document CHEMBL4507285

Molecular target: 5-hydroxytryptamine receptor 2B (Homo sapiens, UniProt P41595)
Sequence (P41595 whole entry): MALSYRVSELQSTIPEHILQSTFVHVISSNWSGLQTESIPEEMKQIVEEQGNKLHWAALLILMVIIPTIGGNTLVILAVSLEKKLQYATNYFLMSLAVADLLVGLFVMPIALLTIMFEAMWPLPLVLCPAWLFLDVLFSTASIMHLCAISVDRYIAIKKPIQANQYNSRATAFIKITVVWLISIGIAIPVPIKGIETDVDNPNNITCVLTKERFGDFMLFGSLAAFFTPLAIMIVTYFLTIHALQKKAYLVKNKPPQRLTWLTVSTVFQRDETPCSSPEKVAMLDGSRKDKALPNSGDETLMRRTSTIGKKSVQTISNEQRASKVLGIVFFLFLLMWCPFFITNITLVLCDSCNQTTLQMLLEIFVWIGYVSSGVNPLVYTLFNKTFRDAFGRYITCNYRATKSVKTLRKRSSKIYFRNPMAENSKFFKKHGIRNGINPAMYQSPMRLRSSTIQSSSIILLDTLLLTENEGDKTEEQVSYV
Measured quantity: Ki (nM)
Hi! Could you send only the number? It should be in nM, unit omitted.

q: Tell me reported Ki for `Cc1ccc(-c2cnc([C@@]3(O)CC[C@H](C(=O)O)C(C)(C)C3)s2)cc1Nc1cccc(C(F)(F)F)n1` , tested with 5-hydroxytryptamine receptor 2B (Homo sapiens, UniProt P41595).
a: 1060

* * *

Assay: GPCRScan assay: inhibition of GABA/PBR
Design: species or system Rattus norvegicus; radioligand conc. used [nm] 0.3 – 2.0, parental cells brain tissue
Measured quantity: Ki

q: Can you look up the measured Ki of Cc1ccc(-c2cnc([C@@]3(O)CC[C@H](C(=O)O)C(C)(C)C3)s2)cc1Nc1cccc(C(F)(F)F)n1 [MRL-SYKi-NC] for me?
a: 774 nM
